biological target: recombinant Human Phosphodiesterase B2 (PDE4B2) (Homo sapiens); experiment: Human Phosphodiesterase B2 Radiometric Assay; assay type: biochemical; conditions: 0.1 μg/mL recombinant PDE4B2; preincubated at 30 C for 30 min; [3H]cyclic AMP 8 nM, stopped after 20 min; yttrium silicate SPA beads; read-out: PDE4B2 pIC50 (converted)

{"columns": ["chem.smiles", "IC50 / nM"],
 "data": [
  ["Cn1ccc(C(=O)N[C@H]2CC[C@@H](NC(=O)c3cc(F)cnc3Oc3cccc(-c4ccc(O)cc4CN4CCOCC4)c3)CC2)n1", 0.0251],
  ["O=C(N[C@H]1CC[C@@H](NC(=O)c2cc(F)cnc2Oc2cccc(-c3ccc(O)cc3CN3CCOCC3)c2)CC1)c1cccc(O)c1", 0.316],
  ["Cc1cc(C(=O)N[C@H]2CC[C@@H](NC(=O)c3cc(F)cnc3Oc3cccc(-c4ccc(CCCNCCCO)cc4)c3)CC2)nn1C", 0.0398]
]}

====

molecular target: recombinant Human Phosphodiesterase B2 (PDE4B2) (Homo sapiens, UniProt Q07343); experiment: Human Phosphodiesterase B2 Radiometric Assay; assay type: biochemical; conditions: 0.1 μg/mL recombinant PDE4B2; preincubated at 30 C for 30 min; [3H]cyclic AMP 8 nM, stopped after 20 min; yttrium silicate SPA beads; read-out: PDE4B2 pIC50 (converted)
Sequence (Q07343 1-564 isoform Q07343-2): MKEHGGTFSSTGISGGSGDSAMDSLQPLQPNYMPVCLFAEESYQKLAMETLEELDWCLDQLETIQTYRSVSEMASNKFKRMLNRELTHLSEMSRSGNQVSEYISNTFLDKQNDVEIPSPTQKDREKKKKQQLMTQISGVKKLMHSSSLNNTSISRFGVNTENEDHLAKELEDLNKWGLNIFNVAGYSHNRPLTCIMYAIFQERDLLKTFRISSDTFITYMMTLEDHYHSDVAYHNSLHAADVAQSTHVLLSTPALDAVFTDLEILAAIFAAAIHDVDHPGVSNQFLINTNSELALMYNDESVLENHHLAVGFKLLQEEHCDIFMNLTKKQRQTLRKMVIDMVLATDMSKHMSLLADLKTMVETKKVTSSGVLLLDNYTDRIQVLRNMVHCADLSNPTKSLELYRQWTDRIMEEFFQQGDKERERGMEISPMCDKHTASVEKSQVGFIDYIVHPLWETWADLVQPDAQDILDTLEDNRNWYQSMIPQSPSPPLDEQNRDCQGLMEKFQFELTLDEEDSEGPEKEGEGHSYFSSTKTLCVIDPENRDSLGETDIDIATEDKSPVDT

{"columns": ["compound", "unit.label", "IC50"],
 "data": [
  ["Cc1cc(C(=O)N[C@H]2CC[C@@H](NC(=O)c3cc(F)cnc3Oc3cccc(-c4cccc(CCN5C[C@@H](C)N[C@@H](C)C5)c4)c3)CC2)nn1C [Example 103]", "nM", 0.0316],
  ["CC(C)c1nc(C(=O)N[C@H]2CC[C@@H](NC(=O)c3cc(F)cnc3Oc3cccc(-c4ccc(CN5C[C@@H](C)N[C@@H](C)C5)cc4CN4CCOCC4)c3)CC2)cs1 [Example 190]", "nM", 0.0398],
  ["Cc1cccc(C(=O)N[C@H]2CC[C@@H](NC(=O)c3cc(F)cnc3Oc3cccc(-c4ccc(CCCN5CCNCC5)cc4)c3)CC2)n1 [Example 153]", "nM", 0.0316],
  ["Cc1nc(C(=O)N[C@H]2CC[C@@H](NC(=O)c3cc(F)cnc3Oc3cccc(-c4ccc(CCN5C[C@@H](C)N[C@@H](C)C5)cc4)c3)CC2)cs1 [Example 86]", "nM", 0.0316]
]}

====

target: recombinant Human Phosphodiesterase B2 (PDE4B2) (Homo sapiens, UniProt Q07343); test: Human Phosphodiesterase B2 Radiometric Assay; type: biochemical; conditions: 0.1 μg/mL recombinant PDE4B2; preincubated at 30 C for 30 min; [3H]cyclic AMP 8 nM, stopped after 20 min; yttrium silicate SPA beads; read-out: PDE4B2 pIC50 (converted)
Consider the cut-off 0.06 nM. If the recorded IC50 is strictly smaller, the label is yes; if not, the label is no.

{"columns": ["chem.smiles", "assigned.label"],
 "data": [
  ["CN1CCCN(Cc2cc(O)ccc2-c2cccc(Oc3ncc(F)cc3C(=O)N[C@H]3CC[C@@H](NC(=O)c4ccc5ccccc5n4)CC3)c2)CC1", "no"],
  ["CC(=O)N1CCN(Cc2cc(O)ccc2-c2cccc(Oc3ncc(F)cc3C(=O)N[C@H]3CC[C@@H](NC(=O)c4csc(C)n4)CC3)c2)CC1", "yes"],
  ["Cc1cccc2nc(CN[C@H]3CC[C@@H](NC(=O)c4cc(F)cnc4Oc4cccc(-c5ccc(O)cc5CN5CCOCC5)c4)CC3)cn12", "no"],
  ["Cc1cc(C(=O)N[C@H]2CC[C@@H](NC(=O)c3cc(F)cnc3Oc3cccc(-c4cccc(CN5C[C@@H](C)N[C@@H](C)C5)c4Cl)c3)CC2)nn1C", "no"],
  ["Cc1nc(C(=O)N[C@H]2CC[C@@H](NC(=O)c3cc(F)cnc3Oc3cccc(-c4ccc(CN5C[C@@H](C)N[C@@H](C)C5)c(O)c4)c3)CC2)cs1", "no"],
  ["Cc1cccc2nc(C(=O)N[C@H]3CC[C@@H](NC(=O)c4cc(F)cnc4Oc4cccc(-c5ccc(CN6CCCOCC6)cc5)c4)CC3)cn12", "no"],
  ["Cn1nc(C(=O)N[C@H]2CC[C@@H](NC(=O)c3cc(F)cnc3Oc3cccc(-c4ccc(CCN5CCNCC5)cc4)c3)CC2)cc1C(F)(F)F", "yes"],
  ["Cc1cccc2nc(C(=O)N[C@H]3CC[C@@H](NC(=O)c4cc(F)cnc4Oc4cccc(-c5ccc(CN6CCC(N7CCCC7)CC6)cc5)c4)CC3)cn12", "no"],
  ["Cc1cccc(C(=O)N[C@H]2CC[C@@H](NC(=O)c3cc(F)cnc3Oc3cccc(-c4ccc(O)cc4CN(C)C)c3)CC2)n1", "yes"],
  ["C[C@@H]1CN(Cc2ccc(-c3cccc(Oc4ncc(F)cc4C(=O)N[C@H]4CC[C@@H](NC(=O)c5cc6n(n5)CCCC6)CC4)c3)c(CN3CCSCC3)c2)C[C@H](C)N1", "yes"],
  ["Cc1csc(C(=O)N[C@H]2CC[C@@H](NC(=O)c3cc(F)cnc3Oc3cccc(-c4ccc(CN5C[C@@H](C)N[C@@H](C)C5)cc4CN4CCSCC4)c3)CC2)n1", "yes"],
  ["Cc1cccc2nc(C(=O)N[C@H]3CC[C@@H](NC(=O)c4cc(F)cnc4Oc4cccc(-c5ccc(CN6C[C@@H](C)N[C@@H](C)C6)cc5CN5CCOC[C@@H]5C)c4)CC3)cn12", "yes"],
  ["Cc1cc(C(=O)N[C@H]2CC[C@@H](NC(=O)c3cc(F)cnc3Oc3cccc(-c4ccc(CN5CCN(C(C)C)CC5)cc4CN4CCOCC4)c3)CC2)nn1C", "no"],
  ["C[C@@H]1CN(CCCc2ccc(-c3cccc(Oc4ncc(F)cc4C(=O)N[C@H]4CC[C@@H](NC(=O)c5cc6n(n5)CCC6)CC4)c3)cc2)C[C@H](C)N1", "yes"],
  ["O=C(N[C@H]1CC[C@@H](NC(=O)c2cc(F)cnc2Oc2cccc(-c3ccc(CCCN4CCNCC4)cc3)c2)CC1)c1cc2ccccn2n1", "yes"],
  ["Cc1cccc(C(=O)N[C@H]2CC[C@@H](NC(=O)c3cc(F)cnc3Oc3cccc(-c4ccc(O)cc4CN4CCCOCC4)c3)CC2)n1", "yes"],
  ["O=C(N[C@H]1CC[C@@H](NC(=O)c2cc(F)cnc2Oc2cccc(-c3ccc(CCCNCCCO)cc3)c2)CC1)c1cc2n(n1)CCCC2", "no"],
  ["Cc1nc(C(=O)N[C@H]2CC[C@@H](NC(=O)c3cc(F)cnc3Oc3cccc(-c4ccc(O)cc4CN(C)C(C)(C)C)c3)CC2)cs1", "no"]
]}

Every entry's value here was drawn from patent US8273774B2.
